Experiment: in vitro
Details: rat, microsomes, pH 7.4, Rat LM-P1 CL (ul/min/mg)
PROPERTY_MEASURED: microsomal CLint at 0.5 μM (µL/min/mg)
Numbers only, in µL/min/mg.

Record excerpt, results attached:
MOLECULE	U	microsomal CLint at 0.5 μM
CC(Cc1cc(F)ccc1F)Nc1cc[nH]c(=O)c1-c1nc2cc3c(cc2[nH]1)C(=O)N(CCN(C)C)C3 (racemic)	µL/min/mg	33.3
C[C@@H](Cc1c(F)c(F)cc(F)c1F)Nc1cc[nH]c(=O)c1-c1nc2cc3c(cc2[nH]1)CN(CCN(C)C)C3=O	µL/min/mg	82.2
Cc1ccc(F)cc1CC(C)Nc1cc[nH]c(=O)c1-c1nc2cc3c(cc2[nH]1)CNC3=O (stereo not drawn)	µL/min/mg	276
C[C@@H](Cc1c(F)c(F)cc(F)c1F)Nc1cc[nH]c(=O)c1-c1nc2cc3c(cc2[nH]1)C(O)N(c1cccnc1)C3=O (stereo partly drawn)	µL/min/mg	18.4
CC(Cc1cc(F)ccc1F)Nc1cc[nH]c(=O)c1-c1nc2cc3c(cc2[nH]1)C(=O)N(CCN(C)C)C3=O (stereo not drawn)	µL/min/mg	27.1

Return reported microsomal CLint at 0.5 μM values for all items listed beneath this line.
1. COC1c2cc3nc(-c4c(N[C@@H](C)Cc5c(F)c(F)cc(F)c5F)cc[nH]c4=O)[nH]c3cc2C(=O)N1c1cccnc1 (stereo partly drawn)
2. CC(Cc1cc(F)ccc1F)Nc1cc[nH]c(=O)c1-c1nc2cc3c(cc2[nH]1)CNC3=O (stereo not drawn)

1. 6.76
2. 78

Return reported microsomal CLint at 0.5 μM values for all items listed beneath this line.
1. C[C@@H](Cc1cc(F)cc(F)c1F)Nc1cc[nH]c(=O)c1-c1nc2cc3c(cc2[nH]1)CN(CCN(C)C)C3=O
2. CC(Cc1cc(F)ccc1F)Nc1cc[nH]c(=O)c1-c1nc2cc3c(cc2[nH]1)CN(C)C3=O (stereo not drawn)
3. CC(Cc1cc(F)ccc1F)Nc1cc[nH]c(=O)c1-c1nc2cc3c(cc2[nH]1)C(=O)N(CC(O)CO)C3=O (stereo not drawn)

79.9
97.2
20.6

* * *

Molecular target: RET (Homo sapiens (Human), UniProt P07949)
Sequence (P07949 29-1114): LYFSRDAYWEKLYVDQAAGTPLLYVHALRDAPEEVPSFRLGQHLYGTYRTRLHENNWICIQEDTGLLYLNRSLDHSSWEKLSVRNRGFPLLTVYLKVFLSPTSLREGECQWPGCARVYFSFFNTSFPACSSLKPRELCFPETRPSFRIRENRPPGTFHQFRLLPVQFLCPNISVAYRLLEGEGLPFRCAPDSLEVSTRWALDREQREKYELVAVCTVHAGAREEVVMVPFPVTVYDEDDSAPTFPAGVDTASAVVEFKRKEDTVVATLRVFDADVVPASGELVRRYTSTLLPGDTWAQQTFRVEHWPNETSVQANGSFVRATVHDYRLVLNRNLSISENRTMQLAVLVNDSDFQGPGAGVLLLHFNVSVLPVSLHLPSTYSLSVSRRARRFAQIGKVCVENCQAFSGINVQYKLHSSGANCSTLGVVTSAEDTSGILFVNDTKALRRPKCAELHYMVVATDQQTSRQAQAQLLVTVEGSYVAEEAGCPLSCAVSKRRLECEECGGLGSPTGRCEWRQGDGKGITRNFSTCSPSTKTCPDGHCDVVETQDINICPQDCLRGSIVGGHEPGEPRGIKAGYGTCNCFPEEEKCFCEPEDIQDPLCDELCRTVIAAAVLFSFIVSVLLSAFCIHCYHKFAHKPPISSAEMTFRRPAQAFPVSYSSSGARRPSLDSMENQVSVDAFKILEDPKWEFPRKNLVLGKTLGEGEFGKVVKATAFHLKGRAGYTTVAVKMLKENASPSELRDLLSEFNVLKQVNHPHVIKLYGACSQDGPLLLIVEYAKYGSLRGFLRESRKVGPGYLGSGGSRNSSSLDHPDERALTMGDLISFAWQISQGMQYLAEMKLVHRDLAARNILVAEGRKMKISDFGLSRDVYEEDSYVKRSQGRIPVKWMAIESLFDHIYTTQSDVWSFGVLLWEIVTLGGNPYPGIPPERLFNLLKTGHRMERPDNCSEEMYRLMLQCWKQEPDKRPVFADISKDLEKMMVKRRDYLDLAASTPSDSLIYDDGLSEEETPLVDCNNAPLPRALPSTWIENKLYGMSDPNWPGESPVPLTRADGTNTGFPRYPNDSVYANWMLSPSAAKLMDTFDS
Test: In vitro kinase activity assay (LANCE TR-FRET)
Format: biochemical
Conditions: read-out: RET (nM) IC50
Please respond with reported IC50 for every item in the list.
Give bare numbers, in nM.

COMPOUND	U	IC50
Cc1c2c(cc3[nH]c(-c4c(NC(C)Cc5c(F)c(F)cc(F)c5F)cc[nH]c4=O)nc13)C(=O)N(C1CCN(C)CC1)C2 (stereo not shown) [Compound 24A]	nM	11.1

# next compound below
Fill in: IC50 of CC(Cc1cc(F)ccc1F)Nc1cc[nH]c(=O)c1-c1nc2cc3c(cc2[nH]1)CNC3=O (stereo not shown) is ___ 16.9

* * *

Experiment: Mouse pharmacokinetics
Details: plasma, iv, 10 mg/kg
PROPERTY_MEASURED: AUC (ng·h/mL)
Give bare numbers, in ng·h/mL.

Fill in: AUC of `C[C@@H](Cc1c(F)c(F)cc(F)c1F)Nc1cc[nH]c(=O)c1-c1nc2cc3c(cc2[nH]1)CN(CCN(C)C)C3=O` is ___ 1770

// data source = patent US8822500B2
